Biological target: CK1α (Homo sapiens, UniProt P48729+Q96SW2)
Construct: CSNK1A1-HiBit KI HEK293(LgBit) Cells; host or cells: HEK293(LgBit) knock-in cells
Sequence (P48729 whole entry): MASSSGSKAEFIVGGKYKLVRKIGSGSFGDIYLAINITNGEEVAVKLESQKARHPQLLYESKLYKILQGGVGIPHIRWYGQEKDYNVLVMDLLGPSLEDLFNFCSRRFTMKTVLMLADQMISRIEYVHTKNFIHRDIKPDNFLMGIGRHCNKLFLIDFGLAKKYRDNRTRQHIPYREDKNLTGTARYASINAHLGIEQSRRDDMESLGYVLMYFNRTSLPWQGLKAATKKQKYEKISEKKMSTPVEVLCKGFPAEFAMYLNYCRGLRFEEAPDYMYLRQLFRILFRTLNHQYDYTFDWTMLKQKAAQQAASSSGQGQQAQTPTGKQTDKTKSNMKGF
Sequence (Q96SW2 whole entry): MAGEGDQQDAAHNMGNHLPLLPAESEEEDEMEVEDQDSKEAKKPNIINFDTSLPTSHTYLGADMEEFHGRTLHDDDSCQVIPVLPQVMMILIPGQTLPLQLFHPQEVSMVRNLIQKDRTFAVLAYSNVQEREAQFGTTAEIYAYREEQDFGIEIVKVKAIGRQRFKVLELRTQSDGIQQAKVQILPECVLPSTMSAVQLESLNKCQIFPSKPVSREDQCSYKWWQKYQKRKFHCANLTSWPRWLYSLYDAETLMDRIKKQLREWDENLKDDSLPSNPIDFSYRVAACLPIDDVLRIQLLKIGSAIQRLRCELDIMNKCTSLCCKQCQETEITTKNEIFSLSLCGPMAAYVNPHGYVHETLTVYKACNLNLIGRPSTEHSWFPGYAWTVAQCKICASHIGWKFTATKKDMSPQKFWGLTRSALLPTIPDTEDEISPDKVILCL
Sequence (Q16531 whole entry partner): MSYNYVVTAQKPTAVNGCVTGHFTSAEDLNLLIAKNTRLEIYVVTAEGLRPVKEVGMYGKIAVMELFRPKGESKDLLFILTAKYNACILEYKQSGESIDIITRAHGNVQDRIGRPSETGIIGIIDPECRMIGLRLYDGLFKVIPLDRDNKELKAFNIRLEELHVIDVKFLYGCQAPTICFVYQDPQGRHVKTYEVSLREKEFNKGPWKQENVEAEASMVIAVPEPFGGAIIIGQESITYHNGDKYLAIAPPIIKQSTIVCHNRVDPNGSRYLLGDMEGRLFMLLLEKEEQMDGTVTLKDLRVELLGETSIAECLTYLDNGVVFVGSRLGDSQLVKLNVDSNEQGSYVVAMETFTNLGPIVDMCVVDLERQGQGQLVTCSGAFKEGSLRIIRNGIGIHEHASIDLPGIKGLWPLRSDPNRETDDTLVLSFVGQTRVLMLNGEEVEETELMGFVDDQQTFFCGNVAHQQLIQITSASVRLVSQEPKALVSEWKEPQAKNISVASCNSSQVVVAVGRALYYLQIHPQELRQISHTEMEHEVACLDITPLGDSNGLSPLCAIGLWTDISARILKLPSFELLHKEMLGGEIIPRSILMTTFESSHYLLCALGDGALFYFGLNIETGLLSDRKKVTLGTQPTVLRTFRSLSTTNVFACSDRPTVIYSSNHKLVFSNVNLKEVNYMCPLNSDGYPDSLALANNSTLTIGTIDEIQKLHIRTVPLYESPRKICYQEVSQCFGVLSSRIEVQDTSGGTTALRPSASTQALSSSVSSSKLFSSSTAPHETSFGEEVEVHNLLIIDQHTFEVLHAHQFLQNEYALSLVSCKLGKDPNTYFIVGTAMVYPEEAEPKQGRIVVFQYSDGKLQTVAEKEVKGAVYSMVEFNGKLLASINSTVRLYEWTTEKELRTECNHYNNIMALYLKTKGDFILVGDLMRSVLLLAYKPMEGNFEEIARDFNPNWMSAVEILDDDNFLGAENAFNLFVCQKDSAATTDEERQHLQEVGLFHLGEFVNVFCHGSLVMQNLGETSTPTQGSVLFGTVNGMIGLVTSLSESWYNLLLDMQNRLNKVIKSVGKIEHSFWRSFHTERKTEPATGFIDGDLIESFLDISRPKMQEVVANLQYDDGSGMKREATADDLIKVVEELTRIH
Assay: HiBiT degradation assay, CK1α, Procedure A
Assay type: cell-based
Conditions: six hours
Protocol: Compounds were spotted onto Cornin 384-Well, Cell Culture-Treated, Flat-Bottom, Low Flange Microplate (Fisher Scientific, Catalog #07-201-013) using a Tecan D300e digital dispenser. […] Cells were dissociated from tissue 182 cm^2 Tissue Culture Flask (CellTreat Catalog #229351) by washing the cells with PBS (Fisher Scientific Catalog #BP3994) followed by dissociation with Trypsin-EDTA (0.25%) (Thermo Scientific Catalog #25200056). […] Cell density was determined using a Denovix CellDrop BF cell counter. […]
REPORTED_ENDPOINT: CK1α Ymin

Cn1cnc(-c2ccc3c(c2)CN(C2CCC(=O)NC2=O)C3=O)c1-c1ccc2cc[nH]c2c1 (stereo not shown) [Example 525] :: C (C = 0-10% remaining)
COc1ccc(-c2c(-c3ccc4c(c3)CN(C3CCC(=O)NC3=O)C4=O)cnn2C(F)F)c(Cl)c1 (stereo not shown) [Example 518] :: C (C = 0-10% remaining)

----------
target: GSPT1 (Homo sapiens, UniProt P15170+Q96SW2); assay: HiBiT degradation assay, GSPT1, Procedure B (Molt 4_hGSPT1_HiBIT cells); type: cell-based; parameters: Molt 4_hGSPT1_HiBIT N-terminus tagged cells were generated using CRISPR technology; endogenous in cells; host or cells: Molt 4 cells, CRISPR-edited; conditions: six hours
Sequence (P15170 whole entry, one chain of several): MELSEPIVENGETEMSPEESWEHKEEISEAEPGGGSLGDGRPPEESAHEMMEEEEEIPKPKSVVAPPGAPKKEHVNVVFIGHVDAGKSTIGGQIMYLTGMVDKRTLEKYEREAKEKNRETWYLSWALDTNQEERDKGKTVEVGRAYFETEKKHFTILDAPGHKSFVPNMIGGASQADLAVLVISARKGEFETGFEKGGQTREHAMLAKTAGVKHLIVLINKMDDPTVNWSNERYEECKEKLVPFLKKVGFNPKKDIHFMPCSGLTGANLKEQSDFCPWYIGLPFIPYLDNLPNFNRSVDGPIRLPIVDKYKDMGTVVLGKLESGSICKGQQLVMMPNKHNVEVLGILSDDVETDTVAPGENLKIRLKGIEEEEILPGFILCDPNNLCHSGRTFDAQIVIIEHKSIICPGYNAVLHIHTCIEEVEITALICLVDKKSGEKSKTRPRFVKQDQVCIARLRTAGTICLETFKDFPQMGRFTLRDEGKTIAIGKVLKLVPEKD
REPORTED_ENDPOINT: DC50

Cn1nc(-c2ccc3c(c2)CN(C2CCC(=O)NC2=O)C3=O)nc1-c1ccc(Cl)cc1 (stereo not shown) :: ≥ 0.025 µM
Cn1ncc(-c2ccc3c(c2)CN(C2CCC(=O)NC2=O)C3=O)c1C1=CCNCC1 (stereo not shown) :: ≥ 0.025 µM
Cn1nc(-c2ccc3c(c2)CN(C2CCC(=O)NC2=O)C3=O)nc1N1CCOCC1 (stereo not shown) :: ≥ 0.025 µM
Cn1cc(-c2ccc3c(c2)CN(C2CCC(=O)NC2=O)C3=O)nc1-c1cccc(OCc2ccccc2)c1 (stereo not shown) :: < 0.025 µM
Cn1cc(-c2ccc3c(c2)CN(C2CCC(=O)NC2=O)C3=O)nc1-c1cccc(C(F)F)c1 (stereo not shown) :: ≥ 0.025 µM
Cn1cc(-c2ccc3c(c2)CN(C2CCC(=O)NC2=O)C3=O)nc1-c1ccc2c(c1)CCC(=O)N2 (stereo not shown) :: < 0.025 µM
Cc1ccc(-c2nc(-c3ccc4c(c3)CN(C3CCC(=O)NC3=O)C4=O)cn2C)cc1F (stereo not shown) :: < 0.025 µM
Cn1cc(-c2ccc3c(c2)CN(C2CCC(=O)NC2=O)C3=O)nc1-c1cccc(F)c1C#N (stereo not shown) :: ≥ 0.025 µM

Indicate its recorded DC50; the molecule in question is Cn1cc(-c2ccc3c(c2)CN(C2CCC(=O)NC2=O)C3=O)nc1-c1cccc(F)c1 (stereo not shown)
≥ 0.025 µM

Indicate its recorded DC50; the molecule in question is Cc1ccc(N)cc1-c1nc(-c2ccc3c(c2)CN(C2CCC(=O)NC2=O)C3=O)cn1C (stereo not shown)
≥ 0.025 µM

Indicate its recorded DC50; the molecule in question is CC(C)c1nc(-c2ccc3c(c2)CN(C2CCC(=O)NC2=O)C3=O)cn1-c1ccccc1 (stereo not shown)
≥ 0.025 µM

Indicate its recorded DC50; the molecule in question is Cn1cc(-c2ccc3c(c2)CN(C2CCC(=O)NC2=O)C3=O)nc1-c1ccc(F)cc1Cl (stereo not shown)
≥ 0.025 µM

Indicate its recorded DC50; the molecule in question is Cn1ncc(-c2ccc3c(c2)CN(C2CCC(=O)NC2=O)C3=O)c1C1=Cc2ccccc2CC1 (stereo not shown)
≥ 0.025 µM

----------
target: CK1α (Homo sapiens, UniProt P48729+Q96SW2); construct: CSNK1A1-HiBit KI HEK293(LgBit) Cells; host or cells: HEK293(LgBit) knock-in cells; assay: HiBiT degradation assay, CK1α, Procedure A; type: cell-based; details: six hours incubation
REPORTED_ENDPOINT: DC50

Some solved entries appear below for comparison.
Cn1cnc(-c2ccc3c(c2)CN(C2CCC(=O)NC2=O)C3=O)c1-c1ccc(COc2ccccc2)cc1 (stereo not shown) [Example 311] :: < 25 nM
O=C1CCC(N2Cc3cc(-c4conc4-c4ccccc4)ccc3C2=O)C(=O)N1 (stereo not shown) [Example 206] :: ≥ 25 nM
COc1ccccc1-c1c(-c2ccc3c(c2)CN(C2CCC(=O)NC2=O)C3=O)ncn1C (stereo not shown) [Example 235] :: < 25 nM
Cn1ncc(-c2ccc3c(c2)CN(C2CCC(=O)NC2=O)C3=O)c1-c1ccc(Cl)cc1 (stereo not shown) [Example 174] :: < 25 nM
Cc1noc(-c2ccccc2)c1-c1ccc2c(c1)CN(C1CCC(=O)NC1=O)C2=O (stereo not shown) [Example 29] :: ≥ 25 nM

State, for CK1α (Homo sapiens, UniProt P48729+Q96SW2), measured DC50 of the compound listed here: Cn1ncc(-c2ccc3c(c2)CN(C2CCC(=O)NC2=O)C3=O)c1-c1cccnc1 (stereo not shown) [Example 360]
< 25 nM

State, for CK1α (Homo sapiens, UniProt P48729+Q96SW2), measured DC50 of the compound listed here: Cn1cnc(-c2ccc3c(c2)CN(C2CCC(=O)NC2=O)C3=O)c1-c1cccc(C(F)F)c1 (stereo not shown) [Example 202]
< 25 nM

----------
biological target: CK1α (Homo sapiens, UniProt P48729+Q96SW2); construct: CSNK1A1-HiBit KI HEK293(LgBit) Cells; host or cells: HEK293(LgBit) knock-in cells; assay: HiBiT degradation assay, CK1α, Procedure A; format: cell-based; settings: six hours
REPORTED_ENDPOINT: CK1α Ymin

Cn1cc(-c2ccc3c(c2)CN(C2CCC(=O)NC2=O)C3=O)nc1-c1cc(F)cc(F)c1 (stereo not shown) :: C (C = 0-10% remaining)
Cn1cc(-c2ccc3c(c2)CN(C2CCC(=O)NC2=O)C3=O)nc1-c1cccc(Cl)c1 (stereo not shown) :: C (C = 0-10% remaining)
Cn1cc(-c2ccc3c(c2)CN(C2CCC(=O)NC2=O)C3=O)nc1-c1cccc(CO)c1 (stereo not shown) :: C (C = 0-10% remaining)

----------
Catalogue of DC50 values
molecular target: CK1α (Homo sapiens, UniProt P48729+Q96SW2); construct: CSNK1A1-HiBit KI HEK293(LgBit) Cells; host or cells: HEK293(LgBit) knock-in cells; assay: HiBiT degradation assay, CK1α, Procedure A; type: cell-based; conditions: six hours incubation

Some solved entries appear below for comparison.
Cn1cc(-c2ccc3c(c2)CN(C2CCC(=O)NC2=O)C3=O)c(-c2ccccc2)n1 (centres unmarked) :: < 25 nM
Cc1c(-c2ccc3c(c2)CN(C2CCC(=O)NC2=O)C3=O)nn(C)c1-c1ccccc1 (centres unmarked) :: < 25 nM
Cn1ncc(-c2ccc3c(c2)CN(C2CCC(=O)NC2=O)C3=O)c1-c1ccc(C2(C#N)CC2)cc1 (centres unmarked) :: < 25 nM
Cn1ncc(-c2ccc3c(c2)CN(C2CCC(=O)NC2=O)C3=O)c1-c1cccc2c1OCC2 (centres unmarked) :: < 25 nM
Cc1cccc(-c2c(-c3ccc4c(c3)CN(C3CCC(=O)NC3=O)C4=O)cnn2C)c1F (centres unmarked) :: < 25 nM
Cc1ccc(Cl)c(-c2c(-c3ccc4c(c3)CN(C3CCC(=O)NC3=O)C4=O)ncn2C)c1 (centres unmarked) :: < 25 nM

Indicate its recorded DC50; the compound in question is Cn1cnc(-c2ccc3c(c2)CN(C2CCC(=O)NC2=O)C3=O)c1-c1ccc(N2CCOCC2)cc1 (centres unmarked)
< 25 nM

Indicate its recorded DC50; the compound in question is Cc1ccc(-c2c(-c3ccc4c(c3)CN(C3CCC(=O)NC3=O)C4=O)ncn2C)c(C)c1 (centres unmarked)
< 25 nM

----------
molecular target: CK1α (Homo sapiens, UniProt P48729+Q96SW2); construct: CSNK1A1-HiBit KI HEK293(LgBit) Cells; host or cells: HEK293(LgBit) knock-in cells; test: HiBiT degradation assay, CK1α, Procedure A; assay type: cell-based; settings: six hours
Catalogue of DC50 values

Cn1cc(-c2ccc3c(c2)CN(C2CCC(=O)NC2=O)C3=O)nc1-c1ccc(Cl)cc1F (stereo not shown) :: < 0.025 µM

State, for CK1α (Homo sapiens, UniProt P48729+Q96SW2), measured DC50 of the compound listed here: Cn1nc(-c2ccc3c(c2)CN(C2CCC(=O)NC2=O)C3=O)cc1C1CCOCC1 (stereo not shown)
< 0.025 µM

State, for CK1α (Homo sapiens, UniProt P48729+Q96SW2), measured DC50 of the compound listed here: Cn1ncc(-c2ccc3c(c2)CN(C2CCC(=O)NC2=O)C3=O)c1-c1cccc(C#N)n1 (stereo not shown)
≥ 0.025 µM

State, for CK1α (Homo sapiens, UniProt P48729+Q96SW2), measured DC50 of the compound listed here: Cn1nc(-c2ccc3c(c2)CN(C2CCC(=O)NC2=O)C3=O)nc1-c1ccc(F)cc1 (stereo not shown)
< 0.025 µM

State, for CK1α (Homo sapiens, UniProt P48729+Q96SW2), measured DC50 of the compound listed here: Cn1cnc(-c2ccc3c(c2)CN(C2CCC(=O)NC2=O)C3=O)c1-c1cncc(N)c1 (stereo not shown)
≥ 0.025 µM

State, for CK1α (Homo sapiens, UniProt P48729+Q96SW2), measured DC50 of the compound listed here: Cn1cc(-c2ccc3c(c2)CN(C2CCC(=O)NC2=O)C3=O)nc1-c1ccnc2ccccc12 (stereo not shown)
< 0.025 µM

State, for CK1α (Homo sapiens, UniProt P48729+Q96SW2), measured DC50 of the compound listed here: C[C@@H]1CCCCN1c1nc(-c2ccc3c(c2)CN(C2CCC(=O)NC2=O)C3=O)nn1C (stereo partly shown)
< 0.025 µM

State, for CK1α (Homo sapiens, UniProt P48729+Q96SW2), measured DC50 of the compound listed here: Cn1ncc(-c2ccc3c(c2)CN(C2CCC(=O)NC2=O)C3=O)c1-c1cnn2ccccc12 (stereo not shown)
< 0.025 µM

State, for CK1α (Homo sapiens, UniProt P48729+Q96SW2), measured DC50 of the compound listed here: Cc1c(-c2ccc3c(c2)CN(C2CCC(=O)NC2=O)C3=O)nc(C2CCOCC2)n1C (stereo not shown)
< 0.025 µM

State, for CK1α (Homo sapiens, UniProt P48729+Q96SW2), measured DC50 of the compound listed here: Cn1ncc(-c2ccc3c(c2)CN(C2CCC(=O)NC2=O)C3=O)c1C1=CCN(CC(F)(F)F)CC1 (stereo not shown)
≥ 0.025 µM

State, for CK1α (Homo sapiens, UniProt P48729+Q96SW2), measured DC50 of the compound listed here: Cc1nc(-c2ccc3c(c2)CN(C2CCC(=O)NC2=O)C3=O)nn1-c1ccccc1 (stereo not shown)
< 0.025 µM

State, for CK1α (Homo sapiens, UniProt P48729+Q96SW2), measured DC50 of the compound listed here: Cn1cc(-c2ccc3c(c2)CN(C2CCC(=O)NC2=O)C3=O)nc1-c1ccc(OC2CC2)cc1 (stereo not shown)
< 0.025 µM

State, for CK1α (Homo sapiens, UniProt P48729+Q96SW2), measured DC50 of the compound listed here: Cn1cnc(-c2ccc3c(c2)CN(C2CCC(=O)NC2=O)C3=O)c1-c1cccc(-n2cccn2)c1 (stereo not shown)
< 0.025 µM

State, for CK1α (Homo sapiens, UniProt P48729+Q96SW2), measured DC50 of the compound listed here: COc1cncc(-c2c(-c3ccc4c(c3)CN(C3CCC(=O)NC3=O)C4=O)ncn2C)c1 (stereo not shown)
< 0.025 µM

State, for CK1α (Homo sapiens, UniProt P48729+Q96SW2), measured DC50 of the compound listed here: CN1CC=C(c2c(-c3ccc4c(c3)CN(C3CCC(=O)NC3=O)C4=O)cnn2C)CC1 (stereo not shown)
≥ 0.025 µM

State, for CK1α (Homo sapiens, UniProt P48729+Q96SW2), measured DC50 of the compound listed here: Cc1ccccc1-c1nc(-c2ccc3c(c2)CN(C2CCC(=O)NC2=O)C3=O)cn1C (stereo not shown)
< 0.025 µM
